Consider the following molecules and their measured pA2 Dog Prostate [α-1A] readings.
TARGET: UniProtKB A0A8I3NK63
Sequence (A0A8I3NK63 1-466): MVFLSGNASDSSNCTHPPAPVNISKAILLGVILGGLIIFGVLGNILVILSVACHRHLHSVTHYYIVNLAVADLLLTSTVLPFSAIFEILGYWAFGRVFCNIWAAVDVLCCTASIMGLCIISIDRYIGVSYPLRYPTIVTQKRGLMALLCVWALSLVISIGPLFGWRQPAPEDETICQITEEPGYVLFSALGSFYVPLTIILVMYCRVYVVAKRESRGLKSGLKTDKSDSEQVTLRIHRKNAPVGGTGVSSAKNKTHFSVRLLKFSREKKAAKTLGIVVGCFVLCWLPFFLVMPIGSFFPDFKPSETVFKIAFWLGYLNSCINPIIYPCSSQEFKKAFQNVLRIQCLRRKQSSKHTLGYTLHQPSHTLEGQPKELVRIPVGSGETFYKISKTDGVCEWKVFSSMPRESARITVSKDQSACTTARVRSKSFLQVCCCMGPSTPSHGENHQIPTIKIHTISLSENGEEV
TEST DETAILS: Functional antagonism: phenylephrine (PE)-induced contraction of canine prostate strips
Assay type: cell-based
ASSAY CONDITIONS: Table 2b; vs phenylephrine; Schild plot
Structures can show the parent of a compound that is named as a salt.
METRIC NAME: pA2 Dog Prostate [α-1A]

MOLECULE | METRIC NAME | TEST VALUE
COc1cccc2c1CC[C@H]1CN(CCn3c(=O)c4sc5nccnc5c4n(Cc4ccccc4)c3=O)C[C@@H]21 [Example 96, hydrochloride] | pA2 Dog Prostate [α-1A] | 7.46
COc1cccc2c1CC[C@@H]1CN(CCn3c(=O)[nH]c4c(sc5cccnc54)c3=O)C[C@H]21 [Example 78, dihydrochloride] | pA2 Dog Prostate [α-1A] | 7.8
COC(=O)c1ccc2sc3c(=O)n(CCN4C[C@@H]5CCc6c(OC)cccc6[C@@H]5C4)c(=O)[nH]c3c2c1 [Example 44, hydrochloride] | pA2 Dog Prostate [α-1A] | 8.09
COc1cccc2c1CC[C@H]1CN(CCn3c(=O)[nH]c4c(sc5nc(C)c(C)nc54)c3=O)C[C@@H]21 [Example 103, hydrochloride] | pA2 Dog Prostate [α-1A] | 9.43
O=c1[nH]c2c(sc3ccccc32)c(=O)n1CCN1C[C@@H]2CCc3c(O)cccc3[C@@H]2C1 (relative stereo) [Example 20, hydrobromide] | pA2 Dog Prostate [α-1A] | 7.43

// provenance: patent US5597823A
